- experimentalSystem: Tryptophan 5-hydroxylase 1 (Rattus norvegicus) (UniProt P09810)
- experimentalProtocol: Compound was tested for its effect on NSD 1015 induced accumulation of 5-HTP(ng/g) in rats in limbic system at a dosage of 10 umol/kg
- Format: functional, tissue-based
measuredEndpoint: Activity

moleculeSmiles	testResult
CCCCN(CCCC)[C@H]1CCc2cccc(O)c2C1	95 ng/g
CN(C)[C@H]1CCc2cccc(O)c2C1	162 ng/g
CCN(CC)[C@H]1CCc2cccc(O)c2C1	86 ng/g
CCCCN(CCCC)[C@@H]1CCc2cccc(O)c2C1	145 ng/g
CN(C)[C@@H]1CCc2cccc(O)c2C1	89 ng/g

----------
Here the recorded Activity is given for each entry.
- experimentalSystem: Tryptophan 5-hydroxylase 1 (Rattus norvegicus) (UniProt P09810)
- Sequence (whole entry): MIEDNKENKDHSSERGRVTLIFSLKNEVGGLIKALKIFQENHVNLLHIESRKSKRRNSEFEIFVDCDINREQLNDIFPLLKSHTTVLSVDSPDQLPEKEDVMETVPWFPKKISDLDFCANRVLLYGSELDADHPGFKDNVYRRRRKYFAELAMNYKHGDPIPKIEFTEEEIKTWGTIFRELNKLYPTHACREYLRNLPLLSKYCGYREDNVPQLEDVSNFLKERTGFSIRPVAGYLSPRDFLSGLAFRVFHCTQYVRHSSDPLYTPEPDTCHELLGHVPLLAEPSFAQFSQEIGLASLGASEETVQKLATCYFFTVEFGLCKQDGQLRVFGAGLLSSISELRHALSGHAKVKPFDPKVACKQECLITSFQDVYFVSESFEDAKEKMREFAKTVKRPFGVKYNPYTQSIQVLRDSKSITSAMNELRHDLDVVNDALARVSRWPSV
- experimentalProtocol: Compound was tested for its effect on NSD 1015 induced accumulation of 5-HTP(ng/g) in rats in limbic system at a dosage of 1.0 umol/kg
- Type: functional, tissue-based
measuredEndpoint: Activity (ng/g)

moleculeSmiles	unitAbbreviation	testResult
CN(C)[C@@H]1CCc2cccc(O)c2C1	ng/g	110
CCCN(CCC)[C@H]1CCc2cccc(O)c2C1	ng/g	75
CCN(CC)[C@@H]1CCc2cccc(O)c2C1	ng/g	72
CCN(CC)[C@H]1CCc2cccc(O)c2C1	ng/g	135

----------
- experimentalSystem: Tryptophan 5-hydroxylase 1 (Rattus norvegicus) (UniProt P09810)
- Sequence (whole entry): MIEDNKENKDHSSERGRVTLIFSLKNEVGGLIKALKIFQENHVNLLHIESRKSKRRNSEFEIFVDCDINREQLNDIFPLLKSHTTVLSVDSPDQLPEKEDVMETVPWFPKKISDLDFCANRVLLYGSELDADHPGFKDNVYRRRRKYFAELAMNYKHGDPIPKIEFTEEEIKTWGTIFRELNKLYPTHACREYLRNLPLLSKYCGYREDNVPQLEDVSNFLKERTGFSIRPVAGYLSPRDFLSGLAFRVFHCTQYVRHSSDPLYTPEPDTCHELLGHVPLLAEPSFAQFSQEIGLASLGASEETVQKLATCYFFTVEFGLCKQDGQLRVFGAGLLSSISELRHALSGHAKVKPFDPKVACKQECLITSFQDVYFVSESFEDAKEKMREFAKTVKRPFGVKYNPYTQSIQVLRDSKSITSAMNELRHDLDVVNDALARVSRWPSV
- experimentalProtocol: Compound was tested for its effect on NSD 1015 induced accumulation of 5-HTP(ng/g) in rats in corpus striatum at a dosage of 1.0 umol/kg
- Assay type: functional

moleculeSmiles	Activity
CCCN(CCC)[C@H]1CCc2cccc(O)c2C1	53 ng/g
CN(C)[C@@H]1CCc2cccc(O)c2C1	76 ng/g
CCN(CC)[C@@H]1CCc2cccc(O)c2C1	47 ng/g
CCN(CC)[C@H]1CCc2cccc(O)c2C1	85 ng/g

----------
- experimentalSystem: Tryptophan 5-hydroxylase 1 (Rattus norvegicus) (UniProt P09810)
- experimentalProtocol: Approximate dose levels for a half maximal reduction of 5-HTP levels
- Format: functional
Here the recorded ED50 is given for each entry.
measuredEndpoint: ED50 (µmol/kg)

moleculeSmiles	experimentalSystem	unitAbbreviation	testResult
CCCCN(CCCC)[C@H]1CCc2cccc(O)c2C1	Tryptophan 5-hydroxylase 1 (Rattus norvegicus) (UniProt P09810)	µmol/kg	5
CCCCN(CCCC)[C@@H]1CCc2cccc(O)c2C1	Tryptophan 5-hydroxylase 1 (Rattus norvegicus) (UniProt P09810)	µmol/kg	20
CCCN(CCC)[C@@H]1CCc2cccc(O)c2C1	Tryptophan 5-hydroxylase 1 (Rattus norvegicus) (UniProt P09810)	µmol/kg	0.1
CCN(CC)[C@@H]1CCc2cccc(O)c2C1	Tryptophan 5-hydroxylase 1 (Rattus norvegicus) (UniProt P09810)	µmol/kg	0.05
CN(C)[C@H]1CCc2cccc(O)c2C1	Tryptophan 5-hydroxylase 1 (Rattus norvegicus) (UniProt P09810)	µmol/kg	20
CCCN(CCC)[C@H]1CCc2cccc(O)c2C1	Tryptophan 5-hydroxylase 1 (Rattus norvegicus) (UniProt P09810)	µmol/kg	0.2
CCN(CC)[C@H]1CCc2cccc(O)c2C1	Tryptophan 5-hydroxylase 1 (Rattus norvegicus) (UniProt P09810)	µmol/kg	3
CN(C)[C@@H]1CCc2cccc(O)c2C1	Tryptophan 5-hydroxylase 1 (Rattus norvegicus) (UniProt P09810)	µmol/kg	1

----------
- experimentalSystem: UniProt P09810
- experimentalProtocol: Compound was tested for its effect on NSD 1015 induced accumulation of 5-HTP(ng/g) in rats in limbic system at a dosage of 3.2 umol/kg
- Assay type: functional, tissue-based
measuredEndpoint: Activity (ng/g)

moleculeSmiles	experimentalSystem	measuredEndpoint	testResult
CCCCN(CCCC)[C@H]1CCc2cccc(O)c2C1	UniProt P09810	Activity	168
CN(C)[C@H]1CCc2cccc(O)c2C1	UniProt P09810	Activity	178
CN(C)[C@@H]1CCc2cccc(O)c2C1	UniProt P09810	Activity	90
CCN(CC)[C@H]1CCc2cccc(O)c2C1	UniProt P09810	Activity	107

----------
- experimentalSystem: Tryptophan 5-hydroxylase 1 (Rattus norvegicus) (UniProt P09810)
- experimentalProtocol: Compound was tested for its effect on NSD 1015 induced accumulation of 5-HTP(ng/g) in rats in limbic system at a dosage of 32 umol/kg
- Type: functional, tissue-based

moleculeSmiles	Activity [ng/g]
CN(C)[C@H]1CCc2cccc(O)c2C1	128
CCCCN(CCCC)[C@@H]1CCc2cccc(O)c2C1	106
CCN(CC)[C@H]1CCc2cccc(O)c2C1	74
CCCCN(CCCC)[C@H]1CCc2cccc(O)c2C1	112

----------
- experimentalSystem: Tryptophan 5-hydroxylase 1 (Rattus norvegicus) (UniProt P09810)
- experimentalProtocol: Compound was tested for its effect on NSD 1015 induced accumulation of 5-HTP in rats in corpus striatum at a dosage of 0.32 umol/kg
- Type: functional, tissue-based

moleculeSmiles	unitAbbreviation	Activity
CCCN(CCC)[C@@H]1CCc2cccc(O)c2C1	ng/g	52
CCCN(CCC)[C@H]1CCc2cccc(O)c2C1	ng/g	61
CCN(CC)[C@@H]1CCc2cccc(O)c2C1	ng/g	50
CN(C)[C@@H]1CCc2cccc(O)c2C1	ng/g	79

----------
Here the recorded Activity is given for each entry.
- experimentalSystem: Tryptophan 5-hydroxylase 1 (Rattus norvegicus) (UniProt P09810)
- experimentalProtocol: Compound was tested for its effect on NSD 1015 induced accumulation of 5-HTP(ng/g) in rats in corpus striatum at a dosage of 10 umol/kg
- Format: functional

moleculeSmiles	unitAbbreviation	Activity
CN(C)[C@@H]1CCc2cccc(O)c2C1	ng/g	44
CCCCN(CCCC)[C@@H]1CCc2cccc(O)c2C1	ng/g	80
CCN(CC)[C@H]1CCc2cccc(O)c2C1	ng/g	55
CN(C)[C@H]1CCc2cccc(O)c2C1	ng/g	69

----------
Here the recorded Activity is given for each entry.
- experimentalSystem: Tryptophan 5-hydroxylase 1 (Rattus norvegicus) (UniProt P09810)
- experimentalProtocol: Compound was tested for its effect on NSD 1015 induced accumulation of 5-HTP(ng/g) in rats in limbic system at a dosage of 0.32 umol/kg
- Type: functional, tissue-based
measuredEndpoint: Activity

moleculeSmiles	experimentalSystem	testResult
CCCN(CCC)[C@@H]1CCc2cccc(O)c2C1	Tryptophan 5-hydroxylase 1 (Rattus norvegicus) (UniProt P09810)	86 ng/g
CN(C)[C@@H]1CCc2cccc(O)c2C1	Tryptophan 5-hydroxylase 1 (Rattus norvegicus) (UniProt P09810)	130 ng/g
CCN(CC)[C@@H]1CCc2cccc(O)c2C1	Tryptophan 5-hydroxylase 1 (Rattus norvegicus) (UniProt P09810)	70 ng/g
CCCN(CCC)[C@H]1CCc2cccc(O)c2C1	Tryptophan 5-hydroxylase 1 (Rattus norvegicus) (UniProt P09810)	114 ng/g

----------
- experimentalSystem: 5-hydroxytryptamine receptor 1A (Rattus norvegicus, UniProt P19327)
- Sequence (P19327 whole entry): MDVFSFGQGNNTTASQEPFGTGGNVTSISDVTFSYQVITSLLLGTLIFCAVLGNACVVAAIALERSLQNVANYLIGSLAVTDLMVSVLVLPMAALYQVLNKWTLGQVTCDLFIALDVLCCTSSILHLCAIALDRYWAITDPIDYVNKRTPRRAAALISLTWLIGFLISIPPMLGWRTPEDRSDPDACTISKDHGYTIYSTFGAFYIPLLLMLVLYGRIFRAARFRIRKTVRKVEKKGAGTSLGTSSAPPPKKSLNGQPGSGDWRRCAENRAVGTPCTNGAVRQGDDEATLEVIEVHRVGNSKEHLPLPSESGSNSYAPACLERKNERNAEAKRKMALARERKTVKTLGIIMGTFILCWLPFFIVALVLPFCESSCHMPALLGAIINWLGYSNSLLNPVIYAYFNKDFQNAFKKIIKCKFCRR
pIC50: −log10 of the molar value.
Here the recorded pIC50 is given for each entry.

moleculeSmiles	pIC50
CCN(CC)[C@H]1CCc2cccc(O)c2C1	6.94
CCCCN(CCCC)[C@H]1CCc2cccc(O)c2C1	7.34
CCCCN(CCCC)[C@@H]1CCc2cccc(O)c2C1	6.96
CCN(CC)[C@@H]1CCc2cccc(O)c2C1	8.02
CN(C)[C@@H]1CCc2cccc(O)c2C1	7.12
CN(C)[C@H]1CCc2cccc(O)c2C1	6.17

Sourced from ChEMBL document CHEMBL1124440
